Test system: OVCAR-3 ovarian
Assay: NCI tumour cell line growth inhibition, 48 h; in the data active means GI50 below about 0.43 µM; inactive means the rest
Hi there, use one of these labels in your reply, thanks! TRUE = active, FALSE = inactive

Status in this test for `Cc1cc(=O)oc2cc(OC/C=C3\CCC(=O)O3)ccc12` ?
FALSE

// same read-out, input: `COCCn1cc(-c2csc(-c3c[nH]c4ccc(Br)cc34)n2)c2cccnc21`
FALSE

// same read-out, input: `Cc1nccc2c3ccc(OCc4cn(-c5ccc(Cl)cc5)nn4)cc3n(CC(C)C)c12`
FALSE

// same read-out, input: `COc1cc2c(cc1C)NC(=O)/C2=C\c1c[nH]c2ccccc12`
FALSE

// same read-out, input: CC1=C([Se]CC(OC(=O)[C@@H](CO)NC(=O)OC(C)(C)C)C(=O)NCCCCCC(=O)OCc2ccccc2)C(=O)c2ccccc2C1=O (stereo partly drawn)
FALSE

// same read-out, input: `COc1cc(/C=C/C(=O)c2c(C)nc3ccccc3c2C)ccc1OCCCN1CCN(C(=O)c2ccco2)CC1`
FALSE

// same read-out, input: `C/C(=N/N=C(N)N)c1ccc(NC(=O)Nc2ccc(/C(C)=N/N=C(N)N)cc2)cc1`
FALSE

// same read-out, input: Cc1ccc(OCC2OC(n3cnc4c(Br)nc(Br)nc43)CC2Oc2ccc(C)cc2)cc1 (stereo not drawn)
FALSE

// same read-out, input: `CN(C)c1ccc(N=C2C=CC(=O)c3ccccc32)cc1`
FALSE

// same read-out, input: `CN1CCN(Cc2ccc(NC(=O)c3cncc(C#Cc4cnc(N)c5cnccc45)c3)cc2C(F)(F)F)CC1`
TRUE

// same read-out, input: `COc1ccc(OC)c(/C=C/c2nc(SCc3ccccc3)n(-c3ccc(Cl)cc3)n2)c1`
FALSE

// same read-out, input: `O=[N+]([O-])c1ccc(Sc2ccncn2)c([N+](=O)[O-])c1`
FALSE

// same read-out, input: `C[C@@H](Oc1cc(-n2cnc3ccc(OC[C@@H](O)CO)cc32)sc1C(N)=O)c1ccccc1Cl`
TRUE

// same read-out, input: `COc1ccc(/C=C2\c3cc(OC)c(OC)c(OC)c3CC[C@@H]2O)cc1F`
TRUE

// same read-out, input: `Fc1ccc(Nc2nc3ccccc3c3occc23)cc1`
FALSE

// same read-out, input: `CCCN1CCC(c2ccc(Nc3nc(Nc4cc(F)ccc4C(N)=O)c4cc[nH]c4n3)c(OC)c2)CC1`
FALSE

// same read-out, input: `CCn1ccc(NS(=O)(=O)c2ccc(N)cc2)nc1=O`
FALSE

// same read-out, input: `COc1ccc2c(c1)C(=O)c1c-2c(Nc2cccc(C(C)=O)c2)nc2ccccc12`
FALSE

----------
Listed next: entries and their corresponding TGI.
System: SF-295 CNS
Assay: NCI tumour cell line growth inhibition, 48 h
Field: numeric (µM). Do not append units.

Solved cases below.
[[record]]
compound = "CC1=C([Se]CC(OC(=O)[C@@H](CO)NC(=O)OC(C)(C)C)C(=O)NCCCCCC(=O)OCc2ccccc2)C(=O)c2ccccc2C1=O (stereo not given in full)"
study_target = "SF-295 CNS"
measured_endpoint = "TGI"
unit_info = "µM"
result = 1.51

[[record]]
compound = "O=C1C=CC2(C=C1)C[C@H](NC(=O)OCc1ccccc1)C(=O)O2"
study_target = "SF-295 CNS"
measured_endpoint = "TGI"
unit_info = "µM"
result = 49.5

[[record]]
compound = "COc1cccc2c1C(=O)c1c(O)c3c(c(O)c1C2=O)C[C@@](O)(C(=O)CO)CC3OC1CC(NCCCC(OC(C)=O)OC(C)=O)C(O)C(C)O1 (stereo not given in full)"
study_target = "SF-295 CNS"
measured_endpoint = "TGI"
unit_info = "µM"
result = 0.000645

[[record]]
compound = "COc1ccc(C(=O)/C=C/c2ccc(OCC(=N)N)cc2)cc1"
study_target = "SF-295 CNS"
measured_endpoint = "TGI"
unit_info = "µM"
result = 30

[[record]]
compound = "Cc1cc(Cl)cc(Cc2cc(Cl)cc(C)c2O)c1O"
study_target = "SF-295 CNS"
measured_endpoint = "TGI"
unit_info = "µM"
result = 7.14


Give its TGI value. Item: `C/C(=N/N=C(N)N)c1ccc(NC(=O)Nc2ccc(/C(C)=N/N=C(N)N)cc2)cc1`
28.4

// same read-out, input: `CCCCCCCCOC(=O)c1cc([N+](=O)[O-])c(Sc2ncnc3nc[nH]c23)c([N+](=O)[O-])c1`
11.2

// same read-out, input: `O=c1c2c(F)c(F)c(F)c(F)c2sc2nccn12`
36.3

// same read-out, input: `COc1ccc2c(c1)C(=O)c1c-2c(Nc2cccc(C(C)=O)c2)nc2ccccc12`
56.2

// same read-out, input: `COc1ccc(OC)c(/C=C/c2nc(SCc3ccccc3)n(-c3ccc(Cl)cc3)n2)c1`
36.6

// same read-out, input: CCOC(=O)c1cc(C2CCN(Cc3ccccc3)C2=S)c(C(=O)C=[N+]=[N-])[nH]1 (stereo not given)
66.8

// same read-out, input: CCCCCCCCC/C=C1/CC(CO)(COC(=O)c2ccccc2)OC1=O (stereo not given)
21.9

// same read-out, input: O=C1NC(c2cccc(OCc3ccccc3)c2)Nc2ccccc21 (stereo not given)
4.12

// same read-out, input: `Cc1nnc(Sc2nc(C#N)c(C#N)nc2Sc2nnc(C)s2)s1`
73.8

// same read-out, input: `CC[C@@]1(CCC(=O)NCCc2c[nH]c3ccccc23)CCC(=O)N2CCc3c([nH]c4ccccc34)[C@H]21`
60.6

// same read-out, input: `CCC[CH2][Pb]([Cl])([CH2]CCC)[CH2]CCC`
0.26

----------
Listed next: entries and their corresponding GI50.
Test system: IGROV1 ovarian
Test: NCI tumour cell line growth inhibition, 48 h

Solved cases below.
[[record]]
compound = "COCCn1cc(-c2csc(-c3c[nH]c4ccc(Br)cc34)n2)c2cccnc21"
measured_endpoint = "GI50"
result = "4.06 µM"

[[record]]
compound = "C/C(=N/N=C(N)N)c1ccc(NC(=O)Nc2ccc(/C(C)=N/N=C(N)N)cc2)cc1"
measured_endpoint = "GI50"
result = "7.47 µM"

[[record]]
compound = "CN1CCN(Cc2ccc(NC(=O)c3cncc(C#Cc4cnc(N)c5cnccc45)c3)cc2C(F)(F)F)CC1"
measured_endpoint = "GI50"
result = "0.141 µM"

[[record]]
compound = "N#CC1C(=O)NC(c2ccccc2[N+](=O)[O-])c2sc3c(F)cccc3c21 (stereo not given)"
measured_endpoint = "GI50"
result = "0.0549 µM"


The record that follows has no GI50 shown yet.
Give its GI50 value. Item: Cc1ccc(OCC2OC(n3cnc4c(Br)nc(Br)nc43)CC2Oc2ccc(C)cc2)cc1 (stereo not given)
2.71 µM

----------
Listed next: entries and their corresponding TGI.
Test system: SNB-19 CNS
Assay: NCI tumour cell line growth inhibition, 48 h

Solved cases below.
[[record]]
compound = "O=[N+]([O-])c1ccc(Sc2ccncn2)c([N+](=O)[O-])c1"
result = "23.7 µM"

[[record]]
compound = "CC1=CCC2CC1NC(=O)CCOCCC(=O)NC2(C)C (stereo not given)"
result = "> 100 µM"

[[record]]
compound = "Cc1ccc(N=C2C(c3ccccc3)=C(SC3=C(c4ccccc4)C(=Nc4ccc(C)cc4)c4ccccc43)c3ccccc32)cc1"
result = "17.1 µM"

[[record]]
compound = "COc1ccc(N(C)c2nc(Cl)nc3cnn(C)c23)cc1"
result = "> 100 µM"

[[record]]
compound = "O=C1C=CC2(C=C1)C[C@H](NC(=O)OCc1ccccc1)C(=O)O2"
result = "> 100 µM"

[[record]]
compound = "C[Si](C)(C)C(Sc1ccccc1)(Sc1ccccc1)Sc1ccccc1"
result = "> 100 µM"

[[record]]
compound = "O=[N+]([O-])C(=C/c1cccs1)/C(=C\\c1cccs1)[N+](=O)[O-]"
result = "5.16 µM"

[[record]]
compound = "COc1ccc2c(c1)C(=O)c1c-2c(Nc2cccc(C(C)=O)c2)nc2ccccc12"
result = "18.3 µM"


Give its TGI value. Item: N#Cc1ccc(C2NN=CC23C(=O)c2ccccc2OC3c2ccccc2)cc1 (stereo not given)
> 100 µM

// same read-out, input: COc1cccc(NC(=O)C(=O)C2C=CCS2(=O)=O)c1 (stereo not given)
> 100 µM

----------
Tested on: HCT-15 colon
Assay: NCI tumour cell line growth inhibition, 48 h
Measured Endpoint: TGI

Give its TGI value. Item: `Cn1c2ccccc2c2c(=O)n(CCCC(=O)OC(=NC3CCCCC3)NC3CCCCC3)c3c(-c4ccccc4)nnn3c21`
> 100 µM

// same read-out, input: `C=CCc1c(O)c(C(=O)/C=C/c2ccccc2)c(OC)c2ccoc12`
11.8 µM

// same read-out, input: `N#Cc1c(N2CCN(c3ccc([N+](=O)[O-])cc3)CC2)[n+](=O)c2ccccc2n1[O-]`
> 100 µM

// same read-out, input: COC1CC(O[C@H]2CC[C@@]3(C)[C@@H](CC[C@]4(O)[C@@H]3CC[C@]3(C)[C@@H](C(C)=O)[C@H](OC(=O)CC(C)C)[C@@H](OC(=O)c5ccccc5)[C@@]34O)C2)OC(C)C1OC1CC(OC)C(OC2OC(C)C(O)C(OC)C2O)C(C)O1 (stereo partly drawn)
> 25 µM

// same read-out, input: `Nc1ncnc2c1ccn2[C@@H]1O[C@H]([C@H](O)c2ccc(Cl)c(F)c2)[C@@H](O)[C@H]1O`
> 100 µM

// same read-out, input: Cc1ccc(S(=O)(=O)N2CCc3ccc(O)c4c3C2Cc2ccc3c(c2-4)OCO3)cc1 (stereo not drawn)
> 35.1 µM

// same read-out, input: Cc1ccc(-c2cc(-c3ccco3)c(C#N)c(=O)n2C2OC(CO)C(O)C(O)C2O)cc1 (stereo not drawn)
> 100 µM

// same read-out, input: `O=Nc1c(O)cc(Nc2cccnc2)c2ccccc12`
64.1 µM
